Collected EC50 values appear next to each entry.
test system: Human alphaherpesvirus 2; experiment: Antiviral activity against Herpes simplex virus 2 G infected in HEL cells assessed as reduction in virus-induced cytopathicity after 3 days; type: functional, organism-based; conditions: Human alphaherpesvirus 2, strain G, 72 h

Here is how some molecules turned out for EC50.
CCCCCCCC(=O)NCC#Cc1cn([C@H]2C[C@H](O)[C@@H](COP(=O)(N[C@@H](C)C(=O)OCc3ccccc3)Oc3ccccc3)O2)c(=O)[nH]c1=O (stereo partly drawn) ... 4 µM
Nc1nc2c(ncn2COCCO)c(=O)[nH]1 ... 0.1 µM

Next molecule, EC50 to be filled in.
What does the record list as EC50 for CCCCCCCC(=O)NCC#Cc1cn([C@H]2C[C@H](O)[C@@H](COP(=O)(N[C@@H](C)C(=O)OCC(C)C)Oc3cccc4ccccc34)O2)c(=O)[nH]c1=O (stereo partly drawn) ? > 100 µM
